System: RMA
Condition Context: carbonyl compound 1.5 mM, NADH 0.25 mM, pH 6.5, 30° C.; acetophenone = 100%
// class 0 strictly below 40% in Relative activity (%) (reducing activity); class 1 otherwise

Q: Could you please find out whether CC(=O)c1cccc(O)c1 [m-Hydroxyacetophenone] has Relative activity (%) (reducing activity) that meets 40% or exceeds it?
Result: class 0

Q: Could you please find out whether O=Cc1ccc([N+](=O)[O-])cc1 [p-Nitrobenzaldehyde] has Relative activity (%) (reducing activity) that meets 40% or exceeds it?
Result: class 0

Q: Could you please find out whether CCOC(=O)CC(=O)COCc1ccccc1 [Ethyl 4-benzyloxyacetoacetate] has Relative activity (%) (reducing activity) that meets 40% or exceeds it?
Result: class 0

Q: Could you please find out whether CCOC(=O)CC(C)=O [Ethyl 3-oxobutanoate] has Relative activity (%) (reducing activity) that meets 40% or exceeds it?
Result: class 1

Q: Could you please find out whether COC(=O)C(C)=O [Methyl pyruvate] has Relative activity (%) (reducing activity) that meets 40% or exceeds it?
Result: class 1

Q: Could you please find out whether CC(=O)CC(=O)OCc1ccccc1 [Benzyl acetoacetate] has Relative activity (%) (reducing activity) that meets 40% or exceeds it?
Result: class 1

Q: Could you please find out whether COc1ccccc1NC(=O)CC(C)=O [o-Acetoacetanisidide] has Relative activity (%) (reducing activity) that meets 40% or exceeds it?
Result: class 0

Q: Could you please find out whether O=Cc1ccccn1 [2-Pyridinecarbaldehyde] has Relative activity (%) (reducing activity) that meets 40% or exceeds it?
Result: class 0

Q: Could you please find out whether CCCCC(C)=O [2-Hexanone] has Relative activity (%) (reducing activity) that meets 40% or exceeds it?
Result: class 1

Q: Could you please find out whether CC(=O)C(Cl)C(C)=O [3-Chloro-2,4-pentadione] has Relative activity (%) (reducing activity) that meets 40% or exceeds it?
Result: class 1

Q: Could you please find out whether CC(=O)CC(=O)Nc1ccc(Cl)cc1 [4′-Chroloacetoacetanilide] has Relative activity (%) (reducing activity) that meets 40% or exceeds it?
Result: class 0
